system: various tumor cell lines; test: Antiproliferative activity on various tumor cell lines; assay type: cell-based; details: read-out: IC50 against a variety of cell lines
pIC50: −log10 of the molar value.
For each entry below, report its pIC50 value.

Give various tumor cell lines pIC50 for Cc1cc2c(C(=O)O)cccc2n1-c1nc2c(c(NCc3ccccc3)n1)CCCN2 [V13] > 6.00

Now try CONC(=O)c1cccc2c1cc(C)n2-c1nc2c(c(NCc3ccccc3)n1)CCCN2 [V12] . > 6.00
